Provide the reported melting point of each item.

Find the recorded melting point belonging to Nc1c(SC(F)(F)F)nc(Cl)n1-c1c(Cl)cc(C(F)(F)F)cc1Cl and report it. 172 °C

Find the recorded melting point belonging to CCCCN1C(=O)NC(CO)C1=O (configuration not stated) and report it. 93 °C

Find the recorded melting point belonging to CC(=O)Nc1ccccc1-n1cc2c(c1-c1ccccc1)c(=O)n(C)c(=O)n2C and report it. > 250 °C

Find the recorded melting point belonging to Cc1cc(C(C)(C)C)c(OP2OCCN2C(C)(C)C)c(C(C)(C)C)c1 (configuration not stated) and report it. 105 to 107 °C

Find the recorded melting point belonging to COc1ccc(C(=O)Nc2cccnc2Cl)cc1 and report it. 125 °C

Find the recorded melting point belonging to O=S(c1ccncc1)C1CCNCC1 (configuration not stated) and report it. 73 to 76 °C

Find the recorded melting point belonging to COc1cc(CO)cc(F)n1 and report it. 46 to 49 °C

Find the recorded melting point belonging to Cc1cc(C2=CC(C)(C)CC(C)(C)C2CO)ccc1F (configuration not stated) and report it. 40 to 42 °C

Find the recorded melting point belonging to COC(=O)C1=C(C)NN=C(c2cccs2)C1c1cccc(Cl)c1 (configuration not stated) and report it. 191 °C

Find the recorded melting point belonging to NS(=O)(=O)c1cccc(-c2cc(-c3nc(-c4ccc(Cl)c(Cl)c4)cc(C(F)(F)F)n3)ccn2)c1 and report it. 247 °C

Find the recorded melting point belonging to Nc1ccc(C(=O)c2nccs2)cc1[N+](=O)[O-] and report it. 179 to 181 °C

Find the recorded melting point belonging to CN(C)CC(=O)Nc1cccc(-c2cc(-c3ccccc3O)nc(NC(=O)c3cccs3)c2C#N)c1 and report it. 220 to 221 °C

Find the recorded melting point belonging to Cc1ccc(O)c2c1C(C)CC2=O (configuration not stated) and report it. 52 to 53 °C

Find the recorded melting point belonging to CS(=O)(=O)Nc1cccc(Nc2nc(NCc3cccc(N)c3)c3nc[nH]c3n2)c1 and report it. 170 to 173 °C

Find the recorded melting point belonging to CON1C=C2N=NC3=C(N2C1)N(c1ccccc1Cl)CC=C3 and report it. 190 to 193 °C

Find the recorded melting point belonging to Oc1nnc2ccc3ccccc3n12 and report it. 134 °C

Find the recorded melting point belonging to CC(Cn1ccc(-c2ccccc2)n1)C(=O)N(C)C (configuration not stated) and report it. 68 to 71 °C

Find the recorded melting point belonging to CN1C=C2c3ccccc3Cc3ccccc3C2C1 (configuration not stated) and report it. 128 to 131 °C

Find the recorded melting point belonging to CC(=O)N[C@@H](CS)C(=O)NCCSC(=O)c1ccccc1 and report it. 128 to 130 °C

Find the recorded melting point belonging to O=C(NC(Cc1cccc(C(F)(F)F)c1)C(=O)N1CCSC1)c1cc2cc(Cl)ccc2[nH]1 (configuration not stated) and report it. 205 to 207 °C

Find the recorded melting point belonging to CCCCCCCCCCCC(O)CC1COC1=O (configuration not stated) and report it. 44.5 to 46 °C

Find the recorded melting point belonging to CCCN(CCC12CC3CC(CC(C3)C1)C2)C(=O)NCCCc1ccncc1 and report it. 99 to 103 °C
